# system: human thrombin (Homo sapiens)
# Construct: Human thrombin (308 NIH; Sigma); purchased Sigma
# test.name: Determination of thrombin Ki (chromogenic substrate S-2238)
# Assay type: biochemical
# conditions.used: selectivity: ratio of Ki for trypsin to Ki for thrombin

compound	value.prefix	Ki trypsin/ Ki thrombin
O=C(NCC1CCc2n[nH]cc2C1)[C@@H]1CCCN1C(=O)[C@@H](CC1CCCCC1)NS(=O)(=O)Cc1ccccc1 (some centres unmarked) [drawing 92]	=	1267
O=C(O)CN[C@H](CC1CCCCC1)C(=O)N1CCC[C@H]1C(=O)NCC1CCc2n[nH]cc2C1 (some centres unmarked)	=	70.6
Nc1nc2c(s1)CC(CNC(=O)[C@@H]1CCCN1C(=O)[C@@H](CC1CCCCC1)NS(=O)(=O)Cc1ccccc1)CC2 (some centres unmarked) [drawing 95]	=	107.8
Nc1nc2c(s1)CC(NC(=O)[C@@H]1CCCN1C(=O)[C@@H](CC1CCCCC1)NS(=O)(=O)Cc1ccccc1)CC2 (some centres unmarked) [drawing 91]	>	569
Nc1nc2c(s1)CC(NC(=O)[C@@H]1CCCN1C(=O)[C@@H](Cc1ccccc1)NS(=O)(=O)Cc1ccccc1)CC2 (some centres unmarked) [drawing 96]	>	110
